Just for reference, PubChem BioAssay (NCATS) is where these values come from.

- condition info: Ebola virus entry assay, ratio channel
The source made the active and inactive calls. The rule behind the calls is not given here.
Classes used: active, inactive

[
  {
    "compound": "Cc1nc2sccn2c(=O)c1CCN1CCC(=C(c2ccc(F)cc2)c2ccc(F)cc2)CC1",
    "assigned class": "active"
  },
  {
    "compound": "CC(=O)OCC1=C(C(=O)O)N2C(=O)[C@@H](NC(=O)CSc3ccncc3)[C@H]2SC1",
    "assigned class": "inactive"
  },
  {
    "compound": "CC(=O)N1C[C@H](O)C[C@H]1C(=O)O",
    "assigned class": "inactive"
  },
  {
    "compound": "CCc1nnc(NS(=O)(=O)c2ccc(N)cc2)s1",
    "assigned class": "inactive"
  },
  {
    "compound": "CC(C)(C)C(=O)OCOC(=O)[C@@H]1N2C(=O)[C@@H](NC(=O)[C@H](N)c3ccccc3)[C@H]2SC1(C)C",
    "assigned class": "active"
  },
  {
    "compound": "CC(C)(C)NCC(O)COc1cccc2c1CCC(=O)N2 (configuration not stated)",
    "assigned class": "inactive"
  },
  {
    "compound": "CCCCCCCCCCCCOCCOCCOCCOCCOCCOCCOCCOCCOCCO",
    "assigned class": "inactive"
  }
]

###

- procedure details: qHTS of pediatric cancer cell lines to identify multiple opportunities for drug repurposing: Primary screen for NB1643 cells (AID 1347099); note: nearly all actives have a fitted effect of over 50% in size
- condition info: NB1643 neuroblastoma viability, CellTiter-Glo luminescence, 48 h; series mostly up to 46 µM
Records with an inconclusive call do not appear. Activity calls are given as the source filed them. The call rests on the fitted dose curve; in most records, active means well fitted cell-killing curve with a large enough effect; inconclusive means small, poorly fitted or top-dose-only effect; inactive means no such curve, though single readings can be large or run the other way.
Classes used: True for active, False for inactive

[
  {
    "compound": "CC(Cc1ccccc1)NCCCCl (centres undefined)",
    "assigned class": "False"
  },
  {
    "compound": "Nc1ccc(Cl)cc1C(=O)c1ccccc1F",
    "assigned class": "False"
  },
  {
    "compound": "CN(C)C(=O)Oc1cc(OC(=O)N(C)C)cc(C(O)CNC(C)(C)C)c1 (centres undefined)",
    "assigned class": "False"
  },
  {
    "compound": "CC1COC2(c3ccccc3Cl)c3cc(Cl)ccc3NC(=O)CN12 (centres undefined)",
    "assigned class": "False"
  },
  {
    "compound": "O=C1NCN(c2ccccc2)C12CCN(CCCOc1ccc(F)cc1)CC2",
    "assigned class": "False"
  },
  {
    "compound": "CCC1(c2ccccc2)CCC(=O)NC1=O (centres undefined)",
    "assigned class": "False"
  },
  {
    "compound": "CCOC(=O)c1cncn1C(C)c1ccccc1 (centres undefined)",
    "assigned class": "False"
  },
  {
    "compound": "CCOP(=S)(OCC)O/N=C(\\C#N)c1ccccc1",
    "assigned class": "False"
  },
  {
    "compound": "CCCCCCCCC(=O)NCc1ccc(O)c(OC)c1",
    "assigned class": "True"
  }
]

###

- condition info: Ebola virus entry assay, blue channel fluorescence
Calls of active or inactive are those of the source. How the calls were made is not given here.

[
  {
    "compound": "CC(C)C(Br)C(=O)NC(N)=O (stereo not drawn)",
    "AC50": "inactive"
  },
  {
    "compound": "C[C@]12CCC(=O)C=C1[C@@H]1C[C@@H]1[C@H]1[C@@H]3[C@@H]4C[C@@H]4[C@@]4(CCC(=O)O4)[C@@]3(C)CC[C@@H]12",
    "AC50": "inactive"
  },
  {
    "compound": "CC(O)Cn1cnc2c1c(=O)n(C)c(=O)n2C (stereo not drawn)",
    "AC50": "inactive"
  },
  {
    "compound": "CCCC(=O)OC[C@@H](OC(=O)CCC)[C@@H](OC(=O)CCC)[C@H](Cn1c2nc(=O)[nH]c(=O)c-2nc2cc(C)c(C)cc21)OC(=O)CCC",
    "AC50": "inactive"
  },
  {
    "compound": "C1CCN2C[C@@H]3C[C@@H](CN4CCCC[C@@H]34)[C@H]2C1",
    "AC50": "inactive"
  },
  {
    "compound": "O=C1NCN(c2ccccc2)C12CCN(CCCC(c1ccc(F)cc1)c1ccc(F)cc1)CC2",
    "AC50": "1.41 µM (active)"
  },
  {
    "compound": "CCOC(=O)[C@H](CCc1ccccc1)N[C@H]1CS[C@H](c2cccs2)CN(CC(=O)O)C1=O",
    "AC50": "inactive"
  },
  {
    "compound": "CN(C)CCN1C(=O)c2ccccc2N(C)c2ccccc21",
    "AC50": "39.8 µM (active)"
  },
  {
    "compound": "C[N+]1(CCC(C(N)=O)(c2ccccc2)c2ccccc2)CCCCC1",
    "AC50": "inactive"
  },
  {
    "compound": "CCOC(=O)C1=C[C@]2(CC)CCCN3CCc4c(n1c1ccccc41)[C@@H]32",
    "AC50": "12.6 µM (active)"
  },
  {
    "compound": "O=C(CBr)Nc1ccc(Cl)cc1C(=O)c1ccccc1F",
    "AC50": "17.8 µM (active)"
  },
  {
    "compound": "Cc1cccc(CN2CCN(C(c3ccccc3)c3ccc(Cl)cc3)CC2)c1 (stereo not drawn)",
    "AC50": "22.4 µM (active)"
  },
  {
    "compound": "OC[C@@H](O)[C@H](O)[C@H](O)[C@@H](O)CO",
    "AC50": "inactive"
  },
  {
    "compound": "C[C@]12CCC(=O)C=C1C=C[C@@H]1[C@@H]2CC[C@@]2(C)[C@H]1CC[C@@]21CCC(=O)O1",
    "AC50": "39.8 µM (active)"
  },
  {
    "compound": "COCCc1ccc(OCC2CO2)cc1 (stereo not drawn)",
    "AC50": "inactive"
  },
  {
    "compound": "CCC1(c2cnc[nH]2)Cc2ccccc2C1",
    "AC50": "25.1 µM (active)"
  },
  {
    "compound": "CN(C)CCOC1=Cc2ccccc2Sc2ccc(Cl)cc21",
    "AC50": "15.8 µM (active)"
  },
  {
    "compound": "O=C1CC2(CCCC2)CC(=O)N1CCNCC1COc2ccccc2O1 (stereo not drawn)",
    "AC50": "inactive"
  }
]
